# System: Staphylococcus epidermidis
# assayMethodText: Antibacterial activity against methicillin-resistant Staphylococcus epidermidis DSM 50160384
# Assay type: functional, organism-based
readout: IC50
Answers without a unit are incomplete; give the number and then its unit.

Study these solved cases before continuing.
COC(=O)[C@H](Cc1c[nH]c(C(C)(C)C)n1)NC(=O)[C@@H](N)Cc1c[nH]c2ccccc12 : 6.73 µg/mL
COC(=O)[C@H](Cc1c[nH]c(C2CCC2)n1)NC(=O)[C@H](Cc1c[nH]c2ccccc12)NC(=O)OC(C)(C)C : 5.44 µg/mL

Kindly consider the entry below.
Query IC50 on Staphylococcus epidermidis for `COC(=O)[C@H](CCCNC(=N)N)NC(=O)[C@H](Cc1c[nH]c(C(C)C)n1)NC(=O)OC(C)(C)C`
13.1 µg/mL
